Target: Tyrosine-protein kinase receptor TYRO3 (Homo sapiens) (UniProt Q06418)
Sequence (whole entry): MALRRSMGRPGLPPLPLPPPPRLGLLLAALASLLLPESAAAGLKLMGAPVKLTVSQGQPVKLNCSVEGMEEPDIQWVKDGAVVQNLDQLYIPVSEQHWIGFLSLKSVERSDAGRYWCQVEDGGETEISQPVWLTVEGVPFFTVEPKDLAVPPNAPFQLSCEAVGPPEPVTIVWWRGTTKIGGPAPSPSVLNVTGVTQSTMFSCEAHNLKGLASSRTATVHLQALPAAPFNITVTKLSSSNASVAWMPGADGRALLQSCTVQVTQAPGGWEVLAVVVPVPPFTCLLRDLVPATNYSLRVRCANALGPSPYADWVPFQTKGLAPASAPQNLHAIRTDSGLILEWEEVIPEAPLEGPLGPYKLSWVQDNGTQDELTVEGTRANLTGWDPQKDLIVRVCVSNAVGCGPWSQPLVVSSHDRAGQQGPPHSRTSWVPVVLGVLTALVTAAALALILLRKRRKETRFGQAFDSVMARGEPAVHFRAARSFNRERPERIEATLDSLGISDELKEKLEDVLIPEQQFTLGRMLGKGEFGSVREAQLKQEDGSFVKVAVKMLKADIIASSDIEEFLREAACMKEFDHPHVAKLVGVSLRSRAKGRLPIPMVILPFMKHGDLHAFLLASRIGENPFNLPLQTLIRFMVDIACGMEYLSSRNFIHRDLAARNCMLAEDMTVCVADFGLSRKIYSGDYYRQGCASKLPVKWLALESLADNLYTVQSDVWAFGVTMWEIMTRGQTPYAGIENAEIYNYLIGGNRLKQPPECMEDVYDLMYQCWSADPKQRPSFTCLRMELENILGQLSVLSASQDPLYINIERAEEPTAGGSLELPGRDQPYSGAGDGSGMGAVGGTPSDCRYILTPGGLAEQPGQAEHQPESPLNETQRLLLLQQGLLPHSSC
Details: at 1 µM
Description: GSK_PKIS: TYRO3 mean inhibition at 1 uM [Nanosyn]
property: inhibition (%)
The reply should be a number in %, with the unit left off.

// inhibition lookup, compound = "N#Cc1cccc(Nc2ncc(-c3ccccc3)o2)c1" , result: 6.8

// inhibition lookup, compound = "Fc1ccc(Nc2nccc(-c3c(-c4ccc(C(F)(F)F)cc4)nn4ncccc34)n2)cc1F" , result: 1.88

// inhibition lookup, compound = "Cc1ccc(-c2cc3c(NC(=O)C4CC4)ncnc3o2)cc1" , result: 47.8

// inhibition lookup, compound = "CCOc1ccc2c(-c3ccnc(Nc4cc(OC)cc(C(F)(F)F)c4)n3)cnn2n1" , result: 4.4

// inhibition lookup, compound = "CS(=O)(=O)CCNCc1ccc(-c2ccc3ncnc(Nc4ccc(OCc5ccccc5)cc4)c3c2)o1" , result: 4.25

* * *

target: Fibroblast growth factor receptor 4 (Homo sapiens) (UniProt P22455); details: at 0.1 µM;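 also: values are mean percent inhibition of FGFR4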
Sequence (P22455 22-802 limits assumed): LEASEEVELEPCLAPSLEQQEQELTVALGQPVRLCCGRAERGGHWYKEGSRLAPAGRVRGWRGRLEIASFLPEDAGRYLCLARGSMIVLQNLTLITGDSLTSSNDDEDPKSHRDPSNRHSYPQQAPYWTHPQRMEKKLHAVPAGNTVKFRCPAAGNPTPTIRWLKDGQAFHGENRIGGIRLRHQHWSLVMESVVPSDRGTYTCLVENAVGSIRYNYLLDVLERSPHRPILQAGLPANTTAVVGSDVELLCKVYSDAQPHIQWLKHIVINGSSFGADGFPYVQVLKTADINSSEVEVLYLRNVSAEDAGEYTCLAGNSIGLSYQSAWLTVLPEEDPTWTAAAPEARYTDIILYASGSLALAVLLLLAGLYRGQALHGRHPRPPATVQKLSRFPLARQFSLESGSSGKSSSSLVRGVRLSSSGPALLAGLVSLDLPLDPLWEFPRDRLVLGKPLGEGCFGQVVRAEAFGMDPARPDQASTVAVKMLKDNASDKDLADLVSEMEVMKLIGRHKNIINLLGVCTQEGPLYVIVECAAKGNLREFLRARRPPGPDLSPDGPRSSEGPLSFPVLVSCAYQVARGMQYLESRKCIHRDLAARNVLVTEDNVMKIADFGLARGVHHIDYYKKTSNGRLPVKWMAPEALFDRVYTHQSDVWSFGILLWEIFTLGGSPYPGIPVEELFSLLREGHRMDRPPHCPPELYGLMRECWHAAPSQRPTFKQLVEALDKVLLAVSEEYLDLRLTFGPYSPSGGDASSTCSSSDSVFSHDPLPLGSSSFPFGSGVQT
Assignment: determine reported inhibition for the given molecules.

// inhibition lookup, molecule = "CCCNc1cccc(-n2ncc3c(N/N=C/c4ccncc4)ncnc32)c1" , result: -1.49%

// inhibition lookup, molecule = "COc1c(C(N)=O)cc(-c2ccc(Cl)cc2)cc1-c1ccc(S(N)(=O)=O)cc1" , result: 4.18%

// inhibition lookup, molecule = "O=C1Nc2ccccc2/C1=C1\CCc2cc(O)ccc21" , result: -1.94%

// inhibition lookup, molecule = "COc1cc(N2CCN(C(C)C)CC2)ccc1Nc1nc(Nc2cccc(F)c2C(=O)O)c2cc[nH]c2n1" , result: -2.62%

// inhibition lookup, molecule = "COc1ccccc1-c1cc(/C=C2\C(=O)Nc3ncc(Br)cc32)cc(Br)c1O" , result: -0.86%

// inhibition lookup, molecule = "CN1CCC(n2cnc(-c3ccc(F)cc3)c2-c2ccnc(NCCO)n2)CC1" , result: -1.01%

// inhibition lookup, molecule = "CS(=O)(=O)Nc1ccc(-c2ccc3c(NC(=O)C4CC4)n[nH]c3c2)cc1" , result: -2.39%

// inhibition lookup, molecule = "O=C(O[C@H]1CN[C@H](C#Cc2cc3ncnc(Nc4ccc5c(cnn5Cc5ccccc5)c4)c3s2)C1)N1CCOCC1" , result: 0.54%

// inhibition lookup, molecule = "CN(C)CCNC(=O)Nc1ccc(N(C)c2ccnc(Nc3ccc(CS(C)(=O)=O)cc3)n2)cc1" , result: 1.63%

// inhibition lookup, molecule = "CN(c1ccc(NC(=O)NCCN2CCOCC2)cc1)c1ccnc(Nc2ccc(CS(C)(=O)=O)cc2)n1" , result: 1.27%

// inhibition lookup, molecule = "c1cnn2ncc(-c3ccnc(NCCCN4CCOCC4)n3)c2c1" , result: -0.18%

// inhibition lookup, molecule = "O=C(Nc1n[nH]c2nnc(-c3cccnc3)cc12)C1CC1" , result: 2.02%

// inhibition lookup, molecule = "Fc1cccc(COc2ccc(Nc3ncncc3C#Cc3ccccc3)cc2Cl)c1" , result: 0.25%

// inhibition lookup, molecule = "NS(=O)(=O)c1ccc(N/N=C2\C(=O)Nc3ccc(C(=O)NCc4ccncc4)cc32)cc1" , result: -2.09%

// inhibition lookup, molecule = "COC(=O)Nc1nc2cc(Oc3ccc(NC(=O)Nc4ccccc4)cc3)ccc2[nH]1" , result: 0.83%

// inhibition lookup, molecule = "N#Cc1ccc2c(-c3ccnc(NC4CC4)n3)c(-c3ccc(F)cc3)nn2c1" , result: 1.18%

// inhibition lookup, molecule = "CS(=O)(=O)CCNCc1ccc(-c2ccc3ncnc(Nc4ccc(OCc5cccc(C(F)(F)F)c5)cc4)c3c2)o1" , result: 4.16%

// inhibition lookup, molecule = "COc1cccc(Nc2nccc(-c3cnn4ncccc34)n2)c1" , result: 1.56%

// inhibition lookup, molecule = "CC1(C)CC(n2cnc(-c3ccc(F)cc3)c2-c2ccnc(N)n2)CC(C)(C)N1" , result: -1.33%

// inhibition lookup, molecule = "Cc1cc(O)cc(C)c1/C=C/c1cncc(C(=O)OC(C)(C)C)c1" , result: 1.4%

// inhibition lookup, molecule = "Cn1c(-c2nonc2N)nc2cnccc21" , result: -0.24%

// inhibition lookup, molecule = "Cc1nnc(-c2cccc(-c3ccc(C(=O)NCC4CC4)cc3)c2)o1" , result: -0.29%

// inhibition lookup, molecule = "CCn1c(-c2nonc2N)nc2cncc(C(=O)NCCNC)c21" , result: 0.72%

// inhibition lookup, molecule = "CCN1CCC(C(=O)Nc2n[nH]c3nnc(-c4cccc(F)c4F)cc23)CC1" , result: 1.8%

// inhibition lookup, molecule = CC1=C(C(=O)Nc2ccc3[nH]ncc3c2)C(c2ccc(F)cc2)N=C(c2ccc(C(F)(F)F)nc2)N1 (stereo unspecified) , result: 0.81%

// inhibition lookup, molecule = "COC(=O)Nc1nc2ccc(Oc3ccc(NC(=O)Nc4cc(C(F)(F)F)ccc4F)cc3)cc2s1" , result: 0.42%

// inhibition lookup, molecule = "CN1CCC(C(=O)Nc2n[nH]c3nc(-c4ccc(O)cc4)c(Br)cc23)CC1" , result: 6.09%

// inhibition lookup, molecule = "NC(=O)c1ccc2c(-c3ccnc(NCCCO)n3)c(-c3ccc(F)cc3)nn2c1" , result: 0.14%

// inhibition lookup, molecule = "FC(F)(F)CNc1nccc(-c2cnn3ncccc23)n1" , result: 1.62%

// inhibition lookup, molecule = "Cc1ccc(-c2cc3c(NC(=O)C4CC4)ncnc3o2)cc1" , result: 1.15%

// inhibition lookup, molecule = "COc1ccc(-c2nn3ncccc3c2-c2ccnc(Nc3ccc(F)c(F)c3)n2)cc1" , result: 1.42%

* * *

target: Serine/threonine-protein kinase Nek6 (Homo sapiens); settings: at 0.1 µM;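 also: values are the mean percent inhibition of NEK6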
property: inhibition (%)
The reply should be a number in %, with the unit left off.

inhibition of "CN(c1ccc(NC(=O)NCCN2CCOCC2)cc1)c1ccnc(Nc2ccc(CS(C)(=O)=O)cc2)n1" , assay on Serine/threonine-protein kinase Nek6 (Homo sapiens), is 3.82

inhibition of "CCS(=O)(=O)c1ccc(OC)c(Nc2ncc(-c3cccc(C(C)=O)c3)o2)c1" , assay on Serine/threonine-protein kinase Nek6 (Homo sapiens), is 3.06

inhibition of "c1ccc(-c2n[nH]cc2-c2ccnc(-c3ccc(OCCn4ccnc4)cc3)c2)nc1" , assay on Serine/threonine-protein kinase Nek6 (Homo sapiens), is 0.49

inhibition of "CCn1c(-c2nonc2N)nc2cncc(C(=O)NCCNC)c21" , assay on Serine/threonine-protein kinase Nek6 (Homo sapiens), is -0.45

inhibition of "NS(=O)(=O)c1ccc(N/N=C2\C(=O)Nc3cccc(CCc4ccncc4)c32)cc1" , assay on Serine/threonine-protein kinase Nek6 (Homo sapiens), is -2.2

inhibition of CC1=C(C(=O)Nc2ccc3[nH]ncc3c2)C(c2ccc(F)cc2)N=C(c2ccc(C(F)(F)F)nc2)N1 (centres undefined) , assay on Serine/threonine-protein kinase Nek6 (Homo sapiens), is 1.87

inhibition of "O=C(O[C@H]1CN[C@H](C#Cc2cc3ncnc(Nc4ccc(OCc5cccc(F)c5)c(Cl)c4)c3s2)C1)N1CCOCC1" , assay on Serine/threonine-protein kinase Nek6 (Homo sapiens), is 1.15

inhibition of "COC(=O)Nc1nc2cc(Oc3ccc(NC(=O)Nc4ccccc4)cc3)ccc2[nH]1" , assay on Serine/threonine-protein kinase Nek6 (Homo sapiens), is 3.54

inhibition of "Fc1cccc(COc2ccc(Nc3ncncc3C#Cc3ccccc3)cc2Cl)c1" , assay on Serine/threonine-protein kinase Nek6 (Homo sapiens), is 1.91

Reference source: ChEMBL document CHEMBL1961873
